The values you see were collected from the supplement of paper PMC11061612.

Tested on: A673 (Ewing's Sarcoma)
RUN_DESCRIPTION: combination Emax (second highest fraction inhibited in the dose matrix, 72 h); higher = more inhibition; extreme values may be limits of the assay
PROPERTY: combination Emax
API doc: respond with a numeric literal and nothing else, no unit.

// fetch combination Emax given entry CCc1c2c(nc3ccc(O)cc13)-c1cc3c(c(=O)n1C2)COC(=O)[C@]3(O)CC [SN-38] + O=C(c1cc(Cc2n[nH]c(=O)c3ccccc23)ccc1F)N1CCN(C(=O)C2CC2)CC1 [Olaparib] (first compound max 0.3 µM, 7x7, partner max 10 µM)
1

Input COc1cccc(OCCCN)c1-c1cc(Nc2cnc(C#N)cn2)n[nH]1 [Prexasertib] + C[C@@H]1COCCN1C2=NC(=NC(=C2)C3(CC3)[S@](=N)(=O)C)C4=C5C=CNC5=NC=C4 [AZD6738] (first compound max 1 µM, 7x7, partner max 10 µM) , output reported combination Emax.
0.883

State its combination Emax for this molecule: NC1(C(=O)N[C@@H](CCO)c2ccc(Cl)cc2)CCN(c2ncnc3[nH]ccc23)CC1 [Capivasertib] + C[C@@H]1COCCN1C2=NC(=NC(=C2)C3(CC3)[S@](=N)(=O)C)C4=C5C=CNC5=NC=C4 [AZD6738] (first compound max 10 µM, 7x7, partner max 10 µM)
0.804
